Hello, the source for this data is ChEMBL document CHEMBL3596146, in case you need it.

target: Peroxisome proliferator-activated receptor gamma (Homo sapiens) (UniProt P37231); assay: Agonist activity at PPAR-gamma (unknown origin) expressed in CV-1 cells co-transfected with tk-PPRE-luciferase vector at 10 uM after 24 hrs by transactivation assay relative to rosiglitazone; format: cell-based
Sequence (P37231 whole entry): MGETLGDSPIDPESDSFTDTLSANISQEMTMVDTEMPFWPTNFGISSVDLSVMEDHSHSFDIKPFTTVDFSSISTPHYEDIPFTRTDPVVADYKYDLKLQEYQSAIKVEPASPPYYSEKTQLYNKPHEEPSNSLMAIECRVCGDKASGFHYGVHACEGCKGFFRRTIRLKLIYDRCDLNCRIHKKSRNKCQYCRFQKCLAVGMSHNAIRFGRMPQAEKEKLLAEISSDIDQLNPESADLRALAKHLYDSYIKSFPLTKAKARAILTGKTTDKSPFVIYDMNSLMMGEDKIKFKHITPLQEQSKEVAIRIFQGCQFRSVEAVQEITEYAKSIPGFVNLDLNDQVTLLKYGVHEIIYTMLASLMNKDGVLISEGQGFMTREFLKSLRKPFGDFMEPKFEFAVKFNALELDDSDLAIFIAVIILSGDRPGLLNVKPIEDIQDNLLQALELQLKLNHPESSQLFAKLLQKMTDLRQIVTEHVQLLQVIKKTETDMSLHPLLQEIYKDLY
QUANTITY_MEASURED: Emax (%)

COMPOUND_SMILES	UNITS_TEXT	OBSERVED_VALUE
Cc1ccc(COc2cccc(OCCCOc3ccc4c(CC(=O)O)c[nH]c4c3)c2)cc1	%	84.3
Cc1ccc(COc2ccc(OCCCOc3ccc4[nH]cc(CC(=O)O)c4c3)cc2)cc1	%	91.7
O=C(O)Cc1cn(Cc2ccccc2)c2ccc(OCCCOc3cccc(Oc4ccc(Cl)cc4)c3)cc12	%	99.8
O=C(O)Cc1cn(Cc2ccccc2)c2ccc(OCCCOc3ccccc3OCc3ccc(Cl)cc3)cc12	%	89.2
COc1ccc(COc2cccc(OCCOc3ccc4[nH]cc(CC(=O)O)c4c3)c2)cc1	%	93.4
O=C(O)Cc1cn(Cc2ccccc2)c2ccc(OCCOc3cccc(OCc4ccc(C(F)(F)F)cc4)c3)cc12	%	85.7
Cc1ccc(COc2ccccc2OCCCOc2ccc3c(c2)c(CC(=O)O)cn3Cc2ccccc2)cc1	%	75.1

* * *

We begin with a simple list: items and their reported Emax.
Molecular target: Peroxisome proliferator-activated receptor alpha (Homo sapiens) (UniProt Q07869)
Sequence (whole entry): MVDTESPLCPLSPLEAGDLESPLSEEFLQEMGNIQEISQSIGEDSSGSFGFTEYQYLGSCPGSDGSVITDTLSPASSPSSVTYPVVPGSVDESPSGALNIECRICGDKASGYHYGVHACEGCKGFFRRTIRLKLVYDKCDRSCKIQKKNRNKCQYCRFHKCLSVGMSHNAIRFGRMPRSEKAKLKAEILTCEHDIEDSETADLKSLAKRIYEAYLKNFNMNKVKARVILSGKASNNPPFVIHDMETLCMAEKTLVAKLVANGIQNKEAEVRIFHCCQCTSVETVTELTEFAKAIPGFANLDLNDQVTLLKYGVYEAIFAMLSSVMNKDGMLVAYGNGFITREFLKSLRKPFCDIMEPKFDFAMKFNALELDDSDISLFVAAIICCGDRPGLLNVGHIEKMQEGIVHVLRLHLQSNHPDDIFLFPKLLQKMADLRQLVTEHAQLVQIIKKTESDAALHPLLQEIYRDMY
Assay: Agonist activity at PPAR-alpha (unknown origin) expressed in CV-1 cells co-transfected with tk-PPRE-luciferase vector at 10 uM after 24 hrs by transactivation assay relative to GW7647
Assay type: cell-based
QUANTITY_MEASURED: Emax (%)

COMPOUND_SMILES	EXPERIMENTAL_SYSTEM	OBSERVED_VALUE
O=C(O)Cc1c[nH]c2ccc(OCCCOc3cccc(OCc4ccccc4)c3)cc12	Peroxisome proliferator-activated receptor alpha (Homo sapiens) (UniProt Q07869)	22.6
O=C(O)Cc1c[nH]c2ccc(OCCCOc3cccc(OCc4ccc(Cl)cc4)c3)cc12	Peroxisome proliferator-activated receptor alpha (Homo sapiens) (UniProt Q07869)	56.7
O=C(O)Cc1cn(Cc2ccccc2)c2ccc(OCCCOc3cccc(OCc4ccc(Cl)cc4Cl)c3)cc12	Peroxisome proliferator-activated receptor alpha (Homo sapiens) (UniProt Q07869)	18.7
O=C(O)Cc1c[nH]c2ccc(OCCCOc3ccccc3OCc3ccc(Cl)cc3)cc12	Peroxisome proliferator-activated receptor alpha (Homo sapiens) (UniProt Q07869)	21
O=C(O)Cc1c[nH]c2ccc(OCCOc3cccc(OCc4ccc(C(F)(F)F)cc4)c3)cc12	Peroxisome proliferator-activated receptor alpha (Homo sapiens) (UniProt Q07869)	43
Cc1ccc(COc2ccccc2OCCCOc2ccc3c(CC(=O)O)c[nH]c3c2)cc1	Peroxisome proliferator-activated receptor alpha (Homo sapiens) (UniProt Q07869)	10.9
Cc1cccc(OCCOc2ccc3[nH]cc(CC(=O)O)c3c2)c1	Peroxisome proliferator-activated receptor alpha (Homo sapiens) (UniProt Q07869)	21.8
O=C(O)Cc1c[nH]c2ccc(OCCCOc3cccc(OCc4ccc(Cl)cc4Cl)c3)cc12	Peroxisome proliferator-activated receptor alpha (Homo sapiens) (UniProt Q07869)	59.5
Cc1ccc(COc2cccc(OCCCOc3ccc4c(CC(=O)O)c[nH]c4c3)c2)cc1	Peroxisome proliferator-activated receptor alpha (Homo sapiens) (UniProt Q07869)	23.4
O=C(O)Cc1c[nH]c2cc(OCCCOc3cccc(OCc4ccc(Cl)cc4)c3)ccc12	Peroxisome proliferator-activated receptor alpha (Homo sapiens) (UniProt Q07869)	33
O=C(O)Cc1cn(Cc2ccccc2)c2ccc(OCCOc3cccc(OCc4ccc(Cl)cc4)c3)cc12	Peroxisome proliferator-activated receptor alpha (Homo sapiens) (UniProt Q07869)	40.7
O=C(O)Cc1cn(Cc2ccccc2)c2ccc(OCCCOc3ccc(OCc4ccc(Cl)cc4)cc3)cc12	Peroxisome proliferator-activated receptor alpha (Homo sapiens) (UniProt Q07869)	19
Cc1ccc(COc2ccc(OCCCOc3ccc4[nH]cc(CC(=O)O)c4c3)cc2)cc1	Peroxisome proliferator-activated receptor alpha (Homo sapiens) (UniProt Q07869)	41.2
O=C(O)Cc1cn(Cc2ccccc2)c2ccc(OCCCOc3cccc(OCc4ccc(C(F)(F)F)cc4)c3)cc12	Peroxisome proliferator-activated receptor alpha (Homo sapiens) (UniProt Q07869)	12.2
Cc1ccc(COc2cccc(OCCOc3ccc4[nH]cc(CC(=O)O)c4c3)c2)cc1	Peroxisome proliferator-activated receptor alpha (Homo sapiens) (UniProt Q07869)	66.7
Cc1ccc(COc2ccc(OCCCOc3ccc4c(c3)c(CC(=O)O)cn4Cc3ccccc3)cc2)cc1	Peroxisome proliferator-activated receptor alpha (Homo sapiens) (UniProt Q07869)	18.9
Cn1cc(CC(=O)O)c2cc(OCCCOc3cccc(OCc4ccc(Cl)cc4)c3)ccc21	Peroxisome proliferator-activated receptor alpha (Homo sapiens) (UniProt Q07869)	37.5
O=C(O)Cc1c[nH]c2ccc(OCCOc3cccc(OCc4ccc(Cl)cc4)c3)cc12	Peroxisome proliferator-activated receptor alpha (Homo sapiens) (UniProt Q07869)	42.8
O=C(O)Cc1c[nH]c2ccc(OCCCOc3cccc(Oc4ccc(C(F)(F)F)cc4)c3)cc12	Peroxisome proliferator-activated receptor alpha (Homo sapiens) (UniProt Q07869)	61.1
COc1ccc(Oc2cccc(OCCCOc3ccc4[nH]cc(CC(=O)O)c4c3)c2)cc1	Peroxisome proliferator-activated receptor alpha (Homo sapiens) (UniProt Q07869)	45

* * *

biological target: Peroxisome proliferator-activated receptor gamma (Homo sapiens); assay: Agonist activity at PPAR-gamma (unknown origin) expressed in CV-1 cells co-transfected with tk-PPRE-luciferase vector at 10 uM after 24 hrs by transactivation assay relative to rosiglitazone; type: cell-based

COMPOUND_SMILES	EXPERIMENTAL_SYSTEM	Emax
Cc1ccc(COc2ccccc2OCCCOc2ccc3[nH]cc(CC(=O)O)c3c2)cc1	Peroxisome proliferator-activated receptor gamma (Homo sapiens)	73.4%
O=C(O)Cc1cn(Cc2ccccc2)c2ccc(OCCCOc3cccc(OCc4ccccc4)c3)cc12	Peroxisome proliferator-activated receptor gamma (Homo sapiens)	94.6%
O=C(O)Cc1cn(Cc2ccccc2)c2ccc(OCCCOc3cccc(OCc4ccc(F)cc4)c3)cc12	Peroxisome proliferator-activated receptor gamma (Homo sapiens)	77.7%
COc1ccc(COc2cccc(OCCOc3ccc4c(c3)c(CC(=O)O)cn4Cc3ccccc3)c2)cc1	Peroxisome proliferator-activated receptor gamma (Homo sapiens)	90.9%
O=C(O)Cc1c[nH]c2ccc(OCCCOc3cccc(OCc4ccc(Cl)cc4)c3)cc12	Peroxisome proliferator-activated receptor gamma (Homo sapiens)	104%
O=C(O)Cc1c[nH]c2ccc(OCCCOc3cccc(Oc4ccc(Cl)cc4)c3)cc12	Peroxisome proliferator-activated receptor gamma (Homo sapiens)	106%
O=C(O)Cc1cn(Cc2ccccc2)c2ccc(OCCOc3cccc(OCc4ccc(Cl)cc4)c3)cc12	Peroxisome proliferator-activated receptor gamma (Homo sapiens)	81.2%
O=C(O)Cc1cn(Cc2ccc(F)cc2)c2ccc(OCCCOc3cccc(OCc4ccc(Cl)cc4)c3)cc12	Peroxisome proliferator-activated receptor gamma (Homo sapiens)	92.7%
Cc1ccc(COc2cccc(OCCCOc3ccc4c(c3)c(CC(=O)O)cn4Cc3ccccc3)c2)cc1	Peroxisome proliferator-activated receptor gamma (Homo sapiens)	109%
O=C(O)Cc1c[nH]c2ccc(OCCOc3cccc(Cl)c3)cc12	Peroxisome proliferator-activated receptor gamma (Homo sapiens)	16.8%
O=C(O)Cc1cn(Cc2ccccc2)c2cc(OCCCOc3cccc(OCc4ccc(Cl)cc4)c3)ccc12	Peroxisome proliferator-activated receptor gamma (Homo sapiens)	122%
O=C(O)Cc1c[nH]c2ccc(OCCCOc3ccccc3OCc3ccc(Cl)cc3)cc12	Peroxisome proliferator-activated receptor gamma (Homo sapiens)	16.1%
Cc1ccc(COc2cccc(OCCCOc3ccc4c(CC(=O)O)cn(Cc5ccccc5)c4c3)c2)cc1	Peroxisome proliferator-activated receptor gamma (Homo sapiens)	130%
Cc1cccc(OCCOc2ccc3[nH]cc(CC(=O)O)c3c2)c1	Peroxisome proliferator-activated receptor gamma (Homo sapiens)	31.3%
COc1ccc(Oc2cccc(OCCCOc3ccc4[nH]cc(CC(=O)O)c4c3)c2)cc1	Peroxisome proliferator-activated receptor gamma (Homo sapiens)	89.7%
O=C(O)Cc1cn(Cc2ccccc2)c2ccc(OCCCOc3cccc(Oc4ccccc4)c3)cc12	Peroxisome proliferator-activated receptor gamma (Homo sapiens)	71.2%
CCCn1cc(CC(=O)O)c2cc(OCCCOc3cccc(OCc4ccc(Cl)cc4)c3)ccc21	Peroxisome proliferator-activated receptor gamma (Homo sapiens)	110%
Cc1cccc(OCCOc2ccc3c(c2)c(CC(=O)O)cn3Cc2ccccc2)c1	Peroxisome proliferator-activated receptor gamma (Homo sapiens)	36.5%
O=C(O)Cc1c[nH]c2ccc(OCCCOc3ccc(OCc4ccc(Cl)cc4)cc3)cc12	Peroxisome proliferator-activated receptor gamma (Homo sapiens)	99.4%
Cc1ccc(Oc2cccc(OCCCOc3ccc4[nH]cc(CC(=O)O)c4c3)c2)cc1	Peroxisome proliferator-activated receptor gamma (Homo sapiens)	145%
C=CCn1cc(CC(=O)O)c2cc(OCCCOc3cccc(OCc4ccc(Cl)cc4)c3)ccc21	Peroxisome proliferator-activated receptor gamma (Homo sapiens)	104%
O=C(O)Cc1cn(Cc2ccccc2)c2ccc(OCCCOc3cccc(OCc4ccc(Cl)cc4Cl)c3)cc12	Peroxisome proliferator-activated receptor gamma (Homo sapiens)	102%
O=C(O)Cc1c[nH]c2ccc(OCCCOc3cccc(Oc4ccccc4)c3)cc12	Peroxisome proliferator-activated receptor gamma (Homo sapiens)	92.5%
O=C(O)Cc1c[nH]c2ccc(OCCCOc3cccc(OCc4ccccc4)c3)cc12	Peroxisome proliferator-activated receptor gamma (Homo sapiens)	73.1%
Cc1ccc(COc2cccc(OCCCOc3ccc4[nH]cc(CC(=O)O)c4c3)c2)cc1	Peroxisome proliferator-activated receptor gamma (Homo sapiens)	134%
O=C(O)Cc1c[nH]c2ccc(OCCCOc3cccc(Oc4ccc(C(F)(F)F)cc4)c3)cc12	Peroxisome proliferator-activated receptor gamma (Homo sapiens)	119%
O=C(O)Cc1cn(Cc2ccccc2)c2ccc(OCCCOc3cccc(Oc4ccc(C(F)(F)F)cc4)c3)cc12	Peroxisome proliferator-activated receptor gamma (Homo sapiens)	85.2%
O=C(O)Cc1c[nH]c2ccc(OCCOc3cccc(OCc4ccc(Cl)cc4)c3)cc12	Peroxisome proliferator-activated receptor gamma (Homo sapiens)	79.6%
O=C(O)Cc1cn(Cc2ccccc2)c2ccc(OCCCOc3ccc(OCc4ccc(Cl)cc4)cc3)cc12	Peroxisome proliferator-activated receptor gamma (Homo sapiens)	83.7%
O=C(O)Cc1c[nH]c2ccc(OCCOc3cccc(OCc4ccc(C(F)(F)F)cc4)c3)cc12	Peroxisome proliferator-activated receptor gamma (Homo sapiens)	103%
O=C(O)Cc1cn(Cc2ccccc2)c2ccc(OCCCOc3cccc(OCc4ccc(C(F)(F)F)cc4)c3)cc12	Peroxisome proliferator-activated receptor gamma (Homo sapiens)	77.9%
Cc1ccc(COc2cccc(OCCOc3ccc4[nH]cc(CC(=O)O)c4c3)c2)cc1	Peroxisome proliferator-activated receptor gamma (Homo sapiens)	114%
O=C(O)Cc1c[nH]c2cc(OCCCOc3cccc(OCc4ccc(Cl)cc4)c3)ccc12	Peroxisome proliferator-activated receptor gamma (Homo sapiens)	81.8%
COc1ccc(Oc2cccc(OCCCOc3ccc4c(c3)c(CC(=O)O)cn4Cc3ccccc3)c2)cc1	Peroxisome proliferator-activated receptor gamma (Homo sapiens)	71.1%
